target: T1, recombinant human CEACAM5 (human, UniProt P06731 35-685, limits assumed)
T1 construct: Immobilised by amine coupling on a CM5 chip
T1 sequence (looked up): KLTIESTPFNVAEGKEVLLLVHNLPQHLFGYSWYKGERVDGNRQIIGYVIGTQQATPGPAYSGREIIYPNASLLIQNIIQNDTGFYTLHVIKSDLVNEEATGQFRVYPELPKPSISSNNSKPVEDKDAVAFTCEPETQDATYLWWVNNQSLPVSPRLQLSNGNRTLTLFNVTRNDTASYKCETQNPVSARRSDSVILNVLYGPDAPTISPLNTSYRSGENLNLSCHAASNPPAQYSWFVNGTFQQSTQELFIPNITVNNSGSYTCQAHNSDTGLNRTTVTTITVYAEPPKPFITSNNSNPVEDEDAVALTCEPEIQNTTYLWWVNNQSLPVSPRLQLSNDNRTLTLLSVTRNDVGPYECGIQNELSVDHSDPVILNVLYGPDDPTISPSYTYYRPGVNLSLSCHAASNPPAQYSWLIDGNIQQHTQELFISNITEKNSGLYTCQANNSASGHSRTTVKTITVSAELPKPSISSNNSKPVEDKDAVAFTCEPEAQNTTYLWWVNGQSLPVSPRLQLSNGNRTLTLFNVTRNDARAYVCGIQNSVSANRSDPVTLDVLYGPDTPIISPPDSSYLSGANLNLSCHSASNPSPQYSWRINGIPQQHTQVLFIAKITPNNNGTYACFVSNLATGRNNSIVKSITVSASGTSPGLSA
protocol details: SPR Biacore 8K+, CEACAM5 amine-coupled on CM5, ISVD analyte, 1:1 fit
koff values by entry
The response must be a number in s⁻¹ with no trailing unit.

The cases that follow already have their koff on record.
binder	koff [s⁻¹]
T028501792 (VHH, K43R vs precursor T028501789; also called A0315007E07(K43R)) VHH: EVQLVESGGGVVQPGGSLRLSCAASGLTFSTYTMGWFRQAPGREREFVAAIIWSGSNTYYADSVKGRFTISRDNAKNTVYLQMNSLRPEDTALYYCAAQHFGPIGLTTRGYHYWGQGTLVTVSS	0.00092
T028501821 (VHH, K43H vs precursor T028501817; also called A0315024B02(M43H, Q64K, K83R)) VHH: EVQLVESGGGVVQPGGSLRLSCAASGHTFSEYALGWFRQAPGHEREFVAAINWGGGWTYYADSVKGRFTISRDNAKNTLYLQMNSLRPEDTALYYCAASSDYAGGNPTGYPYWGQGTLVTVSS	0.00193

Then this binder:
Item: T028501789 (VHH, also called A031500384; A0315007E07(L11V, S76N, N82bS, E83R, V89L, H91Y, N101H)) VHH: EVQLVESGGGVVQPGGSLRLSCAASGLTFSTYTMGWFRQAPGKEREFVAAIIWSGSNTYYADSVKGRFTISRDNAKNTVYLQMNSLRPEDTALYYCAAQHFGPIGLTTRGYHYWGQGTLVTVSS | koff: 0.000885
